Tested on: human colorectal adenocarcinoma (Caco-2 cell lines)
assay: MTT cytotoxicity assay, Caco-2
Assay type: cell-based
stated_conditions: Caco-2, 48 h
Classify by cytotoxicity at 100 µM. Ranges: low end: < 20%; middle: ≥ 20% and < 60%; high end: ≥ 60%

{"columns": ["compound", "cat"],
 "data": [
  ["O=c1cc(-c2ccccc2)c2ccc(OCCCCn3cc(CO[C@@H]4O[C@H](CO)[C@H](O)[C@H](O)[C@H]4O)nn3)cc2o1", "low end"],
  ["O=c1cc(-c2ccccc2)c2ccc(OCCCn3cc(CO[C@@H]4O[C@H](CO)[C@H](O)[C@H](O)[C@H]4O)nn3)cc2o1", "high end"],
  ["CCn1c(COc2ccc3c(-c4ccccc4)cc(=O)oc3c2)nnc1S[C@@H]1OC[C@@H](OC(C)=O)[C@H](OC(C)=O)[C@H]1OC(C)=O", "middle"],
  ["CCn1c(COc2ccc3c(-c4ccccc4)cc(=O)oc3c2)n[nH]c1=S", "high end"],
  ["CCn1c(COc2ccc3c(-c4ccccc4)cc(=O)oc3c2)nnc1SC1OCC(O)C(O)C1O (stereo not drawn)", "low end"],
  ["Cn1c(COc2ccc3c(-c4ccccc4)cc(=O)oc3c2)nnc1SC1OCC(O)C(O)C1O (stereo not drawn)", "middle"],
  ["CCn1c(COc2ccc3c(-c4ccccc4)cc(=O)oc3c2)nnc1SCCOCCO", "high end"],
  ["O=c1cc(-c2ccccc2)c2ccc(O)cc2o1 [Compound 15, 7-hydroxy-4-phenyl-2H-chromen-2-one]", "middle"],
  ["Cn1c(COc2ccc3c(-c4ccccc4)cc(=O)oc3c2)n[nH]c1=S", "middle"],
  ["Cn1c(COc2ccc3c(-c4ccccc4)cc(=O)oc3c2)nnc1S[C@@H]1O[C@H](CO)[C@H](O)[C@H](O)[C@H]1O", "middle"],
  ["CC(=O)O[C@@H]1[C@@H](OC(C)=O)[C@H](Sc2nnc(COc3ccc4c(-c5ccccc5)cc(=O)oc4c3)n2C)OC[C@H]1OC(C)=O", "middle"],
  ["CC(=O)OC[C@H]1O[C@@H](Sc2nnc(COc3ccc4c(-c5ccccc5)cc(=O)oc4c3)n2C)[C@H](OC(C)=O)[C@@H](OC(C)=O)[C@H]1OC(C)=O", "middle"],
  ["O=c1cc(-c2ccccc2)c2ccc(OCCCn3cc(CO[C@@H]4OC[C@@H](O)[C@H](O)[C@H]4O)nn3)cc2o1", "high end"],
  ["CCn1c(COc2ccc3c(-c4ccccc4)cc(=O)oc3c2)nnc1S[C@@H]1O[C@H](CO)[C@H](O)[C@H](O)[C@H]1O", "low end"],
  ["CC(=O)O[C@@H]1[C@@H](OC(C)=O)[C@H](OCc2cn(CCCOc3ccc4c(-c5ccccc5)cc(=O)oc4c3)nn2)OC[C@H]1OC(C)=O", "middle"],
  ["O=c1cc(-c2ccccc2)c2ccc(OCCCI)cc2o1", "middle"],
  ["CC(=O)OC[C@H]1O[C@@H](OCc2cn(CCCCOc3ccc4c(-c5ccccc5)cc(=O)oc4c3)nn2)[C@H](OC(C)=O)[C@@H](OC(C)=O)[C@H]1OC(C)=O", "low end"]
]}

###

Collected melting point values appear next to each entry.

{"columns": ["molecule", "melting point"],
 "data": [
  ["CCn1c(COc2ccc3c(-c4ccccc4)cc(=O)oc3c2)nnc1SC1OCC(O)C(O)C1O (stereo not shown) [Compound 10]", "178 to 179 °C"],
  ["O=c1cc(-c2ccccc2)c2ccc(OCCCCn3cc(CO[C@@H]4O[C@H](CO)[C@H](O)[C@H](O)[C@H]4O)nn3)cc2o1 [Compound 26]", "195 to 196 °C"],
  ["O=c1cc(-c2ccccc2)c2ccc(OCCCCI)cc2o1 [Compound 17]", "143 to 145 °C"],
  ["CC(=O)OC[C@H]1O[C@@H](OCc2cn(CCCOc3ccc4c(-c5ccccc5)cc(=O)oc4c3)nn2)[C@H](OC(C)=O)[C@@H](OC(C)=O)[C@H]1OC(C)=O [Compound 21]", "114 to 115 °C"],
  ["Cn1c(COc2ccc3c(-c4ccccc4)cc(=O)oc3c2)nnc1SCCOCCO [Compound 11]", "155 to 156 °C"],
  ["O=c1cc(-c2ccccc2)c2ccc(OCCCn3cc(CO[C@@H]4OC[C@@H](O)[C@H](O)[C@H]4O)nn3)cc2o1 [Compound 25]", "188 to 189 °C"],
  ["CC(=O)O[C@@H]1[C@@H](OC(C)=O)[C@H](OCc2cn(CCCOc3ccc4c(-c5ccccc5)cc(=O)oc4c3)nn2)OC[C@H]1OC(C)=O [Compound 22]", "127 to 128 °C"]
]}

###

measurement_target: EGFR (Homo sapiens)
Sequence (P00533 25-1210): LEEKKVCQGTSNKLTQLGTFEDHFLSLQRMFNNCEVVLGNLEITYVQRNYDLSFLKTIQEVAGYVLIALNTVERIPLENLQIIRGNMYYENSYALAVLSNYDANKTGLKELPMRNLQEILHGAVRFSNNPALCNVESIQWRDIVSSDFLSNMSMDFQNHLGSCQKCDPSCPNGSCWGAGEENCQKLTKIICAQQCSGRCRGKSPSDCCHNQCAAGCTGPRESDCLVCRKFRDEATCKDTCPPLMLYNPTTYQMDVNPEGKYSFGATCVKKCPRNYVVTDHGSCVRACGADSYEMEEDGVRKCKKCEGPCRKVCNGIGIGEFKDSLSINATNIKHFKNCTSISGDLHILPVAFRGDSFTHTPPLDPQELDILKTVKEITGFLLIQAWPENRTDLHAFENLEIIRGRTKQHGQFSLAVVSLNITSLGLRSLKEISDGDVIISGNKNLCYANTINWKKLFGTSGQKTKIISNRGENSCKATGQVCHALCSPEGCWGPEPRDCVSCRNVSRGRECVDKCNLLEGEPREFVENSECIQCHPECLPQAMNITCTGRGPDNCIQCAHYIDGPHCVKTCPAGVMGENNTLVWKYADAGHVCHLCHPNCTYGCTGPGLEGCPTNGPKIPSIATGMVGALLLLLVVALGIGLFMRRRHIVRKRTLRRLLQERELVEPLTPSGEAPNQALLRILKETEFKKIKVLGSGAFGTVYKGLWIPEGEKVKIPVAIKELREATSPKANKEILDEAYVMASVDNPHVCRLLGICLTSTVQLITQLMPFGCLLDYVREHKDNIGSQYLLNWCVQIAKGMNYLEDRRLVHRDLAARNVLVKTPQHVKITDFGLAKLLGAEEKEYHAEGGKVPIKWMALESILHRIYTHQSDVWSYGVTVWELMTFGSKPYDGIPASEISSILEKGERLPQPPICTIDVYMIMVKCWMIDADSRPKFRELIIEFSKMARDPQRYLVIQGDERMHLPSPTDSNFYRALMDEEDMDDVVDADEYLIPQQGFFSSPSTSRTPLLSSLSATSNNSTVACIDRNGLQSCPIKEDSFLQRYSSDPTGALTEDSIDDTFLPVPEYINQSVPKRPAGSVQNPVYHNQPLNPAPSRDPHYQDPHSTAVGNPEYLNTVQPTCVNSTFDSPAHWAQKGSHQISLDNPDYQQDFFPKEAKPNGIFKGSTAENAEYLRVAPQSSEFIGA
metric_name: IC50 (nM)

{"columns": ["compound", "measurement_target", "assay_result"],
 "data": [
  ["Cn1c(COc2ccc3c(-c4ccccc4)cc(=O)oc3c2)nnc1SC1OCC(O)C(O)C1O (stereo not shown)", "EGFR (Homo sapiens)", 220]
]}

###

metric_name: melting point

{"columns": ["compound", "metric_name", "assay_result"],
 "data": [
  ["CC(=O)O[C@@H]1[C@@H](OC(C)=O)[C@H](Sc2nnc(COc3ccc4c(-c5ccccc5)cc(=O)oc4c3)n2C)OC[C@H]1OC(C)=O", "melting point", "132 to 133 °C"],
  ["CC(=O)OC[C@H]1O[C@@H](OCc2cn(CCCCOc3ccc4c(-c5ccccc5)cc(=O)oc4c3)nn2)[C@H](OC(C)=O)[C@@H](OC(C)=O)[C@H]1OC(C)=O", "melting point", "118 to 119 °C"],
  ["CCn1c(COc2ccc3c(-c4ccccc4)cc(=O)oc3c2)nnc1S[C@@H]1O[C@H](COC(C)=O)[C@H](OC(C)=O)[C@H](OC(C)=O)[C@H]1OC(C)=O", "melting point", "151 to 152 °C"],
  ["Cn1c(COc2ccc3c(-c4ccccc4)cc(=O)oc3c2)nnc1SCC(O)CO (centres unmarked)", "melting point", "170 to 171 °C"],
  ["CCn1c(COc2ccc3c(-c4ccccc4)cc(=O)oc3c2)nnc1SCCOCCO", "melting point", "152 to 153 °C"],
  ["Cn1c(COc2ccc3c(-c4ccccc4)cc(=O)oc3c2)nnc1SC1OCC(O)C(O)C1O (centres unmarked)", "melting point", "231 to 232 °C"],
  ["O=c1cc(-c2ccccc2)c2ccc(OCCCI)cc2o1", "melting point", "130 to 131 °C"],
  ["O=c1cc(-c2ccccc2)c2ccc(OCCCn3cc(CO[C@@H]4O[C@H](CO)[C@H](O)[C@H](O)[C@H]4O)nn3)cc2o1", "melting point", "190 to 191 °C"],
  ["CC(=O)OC[C@H]1O[C@@H](Sc2nnc(COc3ccc4c(-c5ccccc5)cc(=O)oc4c3)n2C)[C@H](OC(C)=O)[C@@H](OC(C)=O)[C@H]1OC(C)=O", "melting point", "211 to 213 °C"],
  ["CCn1c(COc2ccc3c(-c4ccccc4)cc(=O)oc3c2)nnc1SCC(O)CO (centres unmarked)", "melting point", "180 to 181 °C"],
  ["CCn1c(COc2ccc3c(-c4ccccc4)cc(=O)oc3c2)nnc1S[C@@H]1O[C@H](CO)[C@H](O)[C@H](O)[C@H]1O", "melting point", "184 to 185 °C"],
  ["[N-]=[N+]=NCCCOc1ccc2c(-c3ccccc3)cc(=O)oc2c1", "melting point", "110 to 111 °C"],
  ["[N-]=[N+]=NCCCCOc1ccc2c(-c3ccccc3)cc(=O)oc2c1", "melting point", "114 to 116 °C"],
  ["CCn1c(COc2ccc3c(-c4ccccc4)cc(=O)oc3c2)nnc1S[C@@H]1OC[C@@H](OC(C)=O)[C@H](OC(C)=O)[C@H]1OC(C)=O", "melting point", "127 to 128 °C"]
]}

###

Tested on: human breast cancer (MCF-7 cell lines)
assay: MTT cytotoxicity assay, MCF-7
Format: cell-based
stated_conditions: MCF7, 48 h
The molecules listed here are annotated with their cytotoxicity at 100 µM.
metric_name: cytotoxicity at 100 µM (%)

{"columns": ["molecule", "measurement_target", "assay_result"],
 "data": [
  ["CCn1c(COc2ccc3c(-c4ccccc4)cc(=O)oc3c2)nnc1S[C@@H]1O[C@H](CO)[C@H](O)[C@H](O)[C@H]1O", "human breast cancer (MCF-7 cell lines)", 37.8],
  ["O=c1cc(-c2ccccc2)c2ccc(OCCCCI)cc2o1", "human breast cancer (MCF-7 cell lines)", 38.5],
  ["CCn1c(COc2ccc3c(-c4ccccc4)cc(=O)oc3c2)nnc1S[C@@H]1OC[C@@H](OC(C)=O)[C@H](OC(C)=O)[C@H]1OC(C)=O", "human breast cancer (MCF-7 cell lines)", 14.3],
  ["Cn1c(COc2ccc3c(-c4ccccc4)cc(=O)oc3c2)n[nH]c1=S", "human breast cancer (MCF-7 cell lines)", 15.6],
  ["Cn1c(COc2ccc3c(-c4ccccc4)cc(=O)oc3c2)nnc1SCCOCCO", "human breast cancer (MCF-7 cell lines)", 86.7],
  ["CC(=O)OC[C@H]1O[C@@H](OCc2cn(CCCOc3ccc4c(-c5ccccc5)cc(=O)oc4c3)nn2)[C@H](OC(C)=O)[C@@H](OC(C)=O)[C@H]1OC(C)=O", "human breast cancer (MCF-7 cell lines)", 85.4],
  ["CC(=O)O[C@@H]1[C@@H](OC(C)=O)[C@H](Sc2nnc(COc3ccc4c(-c5ccccc5)cc(=O)oc4c3)n2C)OC[C@H]1OC(C)=O", "human breast cancer (MCF-7 cell lines)", 17.1],
  ["Cn1c(COc2ccc3c(-c4ccccc4)cc(=O)oc3c2)nnc1SC1OCC(O)C(O)C1O (centres unmarked)", "human breast cancer (MCF-7 cell lines)", 60.1],
  ["O=c1cc(-c2ccccc2)c2ccc(OCCCCn3cc(CO[C@@H]4O[C@H](CO)[C@H](O)[C@H](O)[C@H]4O)nn3)cc2o1", "human breast cancer (MCF-7 cell lines)", 91.8],
  ["O=c1cc(-c2ccccc2)c2ccc(OCCCn3cc(CO[C@@H]4O[C@H](CO)[C@H](O)[C@H](O)[C@H]4O)nn3)cc2o1", "human breast cancer (MCF-7 cell lines)", 88.2],
  ["CC(=O)OC[C@H]1O[C@@H](Sc2nnc(COc3ccc4c(-c5ccccc5)cc(=O)oc4c3)n2C)[C@H](OC(C)=O)[C@@H](OC(C)=O)[C@H]1OC(C)=O", "human breast cancer (MCF-7 cell lines)", 9.8],
  ["CCn1c(COc2ccc3c(-c4ccccc4)cc(=O)oc3c2)nnc1S[C@@H]1O[C@H](COC(C)=O)[C@H](OC(C)=O)[C@H](OC(C)=O)[C@H]1OC(C)=O", "human breast cancer (MCF-7 cell lines)", 2.8],
  ["CCn1c(COc2ccc3c(-c4ccccc4)cc(=O)oc3c2)nnc1SCC(O)CO (centres unmarked)", "human breast cancer (MCF-7 cell lines)", 98.1],
  ["Cn1c(COc2ccc3c(-c4ccccc4)cc(=O)oc3c2)nnc1SCC(O)CO (centres unmarked)", "human breast cancer (MCF-7 cell lines)", 51.9]
]}
